Recorded values, source patent US20070191373A1.

test: Toxicity in tissue culture, reduction of cell number; type: cell-based; details: human, human embryonic lung fibroblast (HEL) cells; Table 1; concentration reducing cell number by 50%
Measured attribute: CC50

// lookup CC50 for CCCCCCCCCCc1cc2cn(CC3CCCO3)c(=O)nc2o1 (centres unmarked)
49 µM

// lookup CC50 for CCCCCCCc1cc2cn(CCCCC)c(=O)nc2o1
> 200 µM

// lookup CC50 for CCCCCCCCCCc1cc2cn(C3CCCCC3)c(=O)nc2o1
> 200 µM

// lookup CC50 for CCCCCn1cc2cc(CCCC)oc2nc1=O
> 200 µM

// lookup CC50 for CCCCCCCCCCc1cc2cn(Cc3ccc(C)cc3)c(=O)nc2o1
> 200 µM

// lookup CC50 for CCCCCCCc1cc2cn(C(CC)CC)c(=O)nc2o1
> 200 µM

// lookup CC50 for CCCCCCCCCCc1cc2cn(Cc3ccc(OC)cc3)c(=O)nc2o1
> 200 µM

// lookup CC50 for CCCCCCCCCCc1cc2cn(Cc3ccccc3)c(=O)nc2o1
> 200 µM

// lookup CC50 for CCCCCCCCCCc1cc2cn(CCC)c(=O)nc2o1
> 200 µM

// lookup CC50 for CCCCCCCCCCc1cc2cn(C3CCCO3)c(=O)nc2o1 (centres unmarked)
> 200 µM

// lookup CC50 for CCCCCCCCCCc1cc2cn(CC3CCCCC3)c(=O)nc2o1
> 200 µM

* * *

# melting point per record follows

Please review the following examples before continuing.
{"columns": ["Molecule", "Value"],
 "data": [
  ["CCCCc1cc2cnc(OC3CCCC3)nc2o1 [Cf2159]", "69 to 71 °C"],
  ["CCCCCCCc1cc2cnc(OCCCCC)nc2o1 [Cf2191]", "48 to 49 °C"],
  ["CCCCCCCc1cc2cnc(OC(CC)CC)nc2o1 [Cf2189]", "70 to 71 °C"]
]}

# next molecule below
// lookup melting point for CCCCCOc1ncc2cc(CCCC)oc2n1 [Cf 2327]
51 to 52 °C
